tested on: T1, human CD40 on cells (human, UniProt P25942 21-277)
T1 construct: whole, on cells; The cell line used is named in each row's assay; also called hCD40; TNFRSF5
T1 sequence (P25942 21-277): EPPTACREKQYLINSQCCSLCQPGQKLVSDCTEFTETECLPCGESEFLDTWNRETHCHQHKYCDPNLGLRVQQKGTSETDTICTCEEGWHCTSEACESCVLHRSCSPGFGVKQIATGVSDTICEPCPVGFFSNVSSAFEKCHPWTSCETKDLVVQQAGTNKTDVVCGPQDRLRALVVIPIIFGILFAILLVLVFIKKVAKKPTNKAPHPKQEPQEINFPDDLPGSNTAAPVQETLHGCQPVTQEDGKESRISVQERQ
test: FACS, Raji cells
measure: pEC50
Note on pEC50: it is the negative log10 of concentration, concentration in mol/L.

// Input: PR006501 (antibody, human IgG1, kappa, V domains shown, PR003379 variant L:N92Q; human IgG1 L234A, L235A, G237A) VH: QVQLVQSGAEVKKPGASVKVSCKASGYTFAGYYMYWVRQAPGQGLEWMGWINPDSGAPTYAQKFQGRVTMTRDTSISTAYMELSRLRSDDTAVYYCAREKIYYGSGNYYPSFDYWGQGTLVTVSS VL: DIQLTQSPSFLSASVGDRVTITCRASQGISSYLAWYQQKPGKAPKLLIYAASTLQSGVPSRFSGSGSGTEFTLTISSLQPEDFATYYCQQLQSYPWTFGQGTKVEIKR . Output its pEC50 only.
9.45

Return pEC50 for the following binder: PR006515 (antibody, human IgG1, kappa, V domains shown, PR003379 variant L:S93M; human IgG1 L234A, L235A, G237A) VH: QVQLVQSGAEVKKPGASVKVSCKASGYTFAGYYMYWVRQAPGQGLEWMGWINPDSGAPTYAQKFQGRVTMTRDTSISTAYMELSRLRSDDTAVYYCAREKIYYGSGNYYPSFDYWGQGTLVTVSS VL: DIQLTQSPSFLSASVGDRVTITCRASQGISSYLAWYQQKPGKAPKLLIYAASTLQSGVPSRFSGSGSGTEFTLTISSLQPEDFATYYCQQLNMYPWTFGQGTKVEIKR
9.49

Look up and state reported pEC50 for PR001306 (CDX-1140) (antibody, human IgG2, kappa, V domains shown, CD40 positive control antibody) VH: QVQLVESGGGVVQPGKSLRLSCAASGFTFSSNGIHWVRQAPGKGLEWVAVIWSDGSNKFYADSVKGRFTISRDNSKNTLYLQMNSLRAEDTAVYYCARASGSGSYYNFFDYWGQGTLVTVSS VL: EIVMTQSPATLSVSPGERATLSCRASQSVRSNLAWYQQKPGQAPRLLIYGASTRATGIPARFSGSGSGTEFTLTINSLQSEDFAVYYCQQHNKWITFGQGTRLEIKR
10.55
